System: chymotryptic-like activity of isolated 20S constitutive proteasome vs immunoproteasome
testProtocol: Enzyme kinetic assay with isolated 20S proteasome preps, EC50 ratio of CT-L activity (20S ratio)
Type: biochemical
conditionNotes: constitutive proteasome to immunoproteasome, >1 = prefers immunoproteasome
assayEndpoint: 20 S ratio (const:immuno)

CC1(C(=O)[C@H](Cc2ccccc2)NC(=O)[C@H](Cc2c[nH]c3ccccc23)NC(=O)[C@H](CC(N)=O)NC(=O)OCc2ccccc2)CO1 (some centres unmarked)	>1.0
CC1(C(=O)[C@H](Cc2ccccc2)NC(=O)[C@H](Cc2ccccc2)NC(=O)C(CC(=O)O)NC(=O)OCc2ccccc2)CO1 (some centres unmarked)	>3.0
CC1(C(=O)[C@H](Cc2ccccc2)NC(=O)[C@H](Cc2ccccc2)NC(=O)[C@@H](Cc2ccccc2)NC(=O)OCc2ccccc2)CO1 (some centres unmarked)	>5.0
CC[C@H](C)[C@@H](NC(=O)OCc1ccccc1)C(=O)N[C@@H](Cc1ccccc1)C(=O)N[C@@H](Cc1ccccc1)C(=O)C1(C)CO1 (some centres unmarked)	>5.0
CC1(C(=O)[C@H](Cc2ccccc2)NC(=O)[C@H](Cc2c[nH]c3ccccc23)NC(=O)[C@H](CCC(N)=O)NC(=O)OCc2ccccc2)CO1 (some centres unmarked)	>1.0
CC1(C(=O)[C@H](Cc2ccccc2)NC(=O)[C@H](Cc2c[nH]c3ccccc23)NC(=O)[C@@H](NC(=O)OCc2ccccc2)c2ccccc2)CO1 (some centres unmarked)	>3.0
C[C@H](NC(=O)OCc1ccccc1)C(=O)N[C@@H](Cc1ccc(C(F)(F)F)cc1)C(=O)N[C@@H](Cc1ccccc1)C(=O)C1(C)CO1 (some centres unmarked)	>1.0

Switching to the query record.
# input molecule: CC1(C(=O)[C@H](Cc2ccccc2)NC(=O)[C@H](Cc2ccccc2)NC(=O)[C@H](Cc2c[nH]cn2)NC(=O)OCc2ccccc2)CO1 (some centres unmarked) ; wanted: its 20 S ratio (const:immuno)
<1.0

----------
Lysate ratio (HT29:Sultan/Thp1) by entry:
targetOfAssay: 26S proteasome CT-L activity in lysate of HT29 (constitutive) vs Sultan/Thp1 (immunoproteasome) cells (Homo sapiens, UniProt P28062+P28074)
Construct: using 26S proteasome in the context of a cell lysate; endogenous in cells; host or cells: HT29 lysate (constitutive); Sultan or THP1 lysate (immunoproteasome)
Sequence (P28074 60-263): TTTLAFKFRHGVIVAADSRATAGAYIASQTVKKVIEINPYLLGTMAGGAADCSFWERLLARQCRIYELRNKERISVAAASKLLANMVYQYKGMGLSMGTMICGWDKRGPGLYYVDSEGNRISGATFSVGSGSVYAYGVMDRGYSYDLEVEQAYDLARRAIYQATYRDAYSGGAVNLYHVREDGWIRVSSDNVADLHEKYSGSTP
Sequence (P28062 73-276): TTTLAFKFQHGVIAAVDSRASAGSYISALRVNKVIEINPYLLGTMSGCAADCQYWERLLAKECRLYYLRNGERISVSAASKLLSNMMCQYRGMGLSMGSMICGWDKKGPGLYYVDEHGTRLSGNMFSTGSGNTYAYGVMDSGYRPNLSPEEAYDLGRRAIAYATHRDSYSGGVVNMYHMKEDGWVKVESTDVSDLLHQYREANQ
testProtocol: CT-L EC50 with 26S proteasome in cell lysate (Lysate ratio)
Assay type: biochemical
conditionNotes: HT29 lysate to Sultan/Thp1 lysate, >1 = prefers immunoproteasome

Before answering, review these 2 worked examples.
CC1(C(=O)[C@H](Cc2ccccc2)NC(=O)[C@H](Cc2c[nH]c3ccccc23)NC(=O)[C@H](CCC(N)=O)NC(=O)OCc2ccccc2)CO1 (stereo partly drawn)	>3.0
CC(C)C(NC(=O)OCc1ccccc1)C(=O)N[C@@H](Cc1c[nH]c2ccccc12)C(=O)N[C@@H](Cc1ccccc1)C(=O)C1(C)CO1 (stereo partly drawn)	>5.0

# input molecule: CC1(C(=O)[C@H](Cc2ccccc2)NC(=O)[C@H](Cc2ccccc2)NC(=O)C(CC(=O)O)NC(=O)OCc2ccccc2)CO1 (stereo partly drawn) ; wanted: its Lysate ratio (HT29:Sultan/Thp1)
>3.0

----------
Elisa ratio (beta5:LMP7) by entry:
targetOfAssay: 20S proteasome subunit β5 vs immunoproteasome subunit LMP7 in RPMI-8226 cells (Homo sapiens, UniProt P28062+P28074)
Construct: Cells expressing approximately equivalent amounts of immuno- and constitutive proteasome (e.g., RPMI-8226) are treated with test compound; endogenous in cells; host or cells: RPMI-8226 multiple myeloma cells
Sequence (P28074 60-263): as the sequence (P28074 60-263) above
Sequence (P28062 73-276): as the sequence (P28062 73-276) above
testProtocol: ELISA-based active site assay in RPMI-8226 cells (ELISA ratio)
Format: cell-based
conditionNotes: EC50 ratio with β5 antibody to LMP7 antibody, RPMI-8226 cells; >1 = prefers immunoproteasome
Method: Lastly, a more cell-based approach can be utilized. Cells expressing approximately equivalent amounts of immuno- and constitutive proteasome (e.g., RPMI-8226) are treated with test compound, followed by the method for determining the activity of a proteasome inhibitor as described in application Ser. No. 11/254,541. […]

Before answering, review these 6 worked examples.
CC1(C(=O)[C@H](Cc2ccccc2)NC(=O)[C@H](Cc2c[nH]c3ccccc23)NC(=O)C(CC(=O)O)NC(=O)OCc2ccccc2)CO1 (stereo partly drawn)	>2.0
C[C@H](NC(=O)OCc1ccccc1)C(=O)N[C@@H](Cc1c[nH]c2ccccc12)C(=O)N[C@H](C(=O)C1(C)CO1)c1ccccc1 (stereo partly drawn)	>3.0
CC1(C(=O)[C@H](Cc2ccccc2)NC(=O)[C@H](Cc2c[nH]c3ccccc23)NC(=O)[C@H](CCC(N)=O)NC(=O)OCc2ccccc2)CO1 (stereo partly drawn)	>1.0
CC(C)C[C@H](NC(=O)OCc1ccccc1)C(=O)N[C@@H](Cc1ccccc1)C(=O)N[C@@H](CC(C)C)C(=O)C1(C)CO1 (stereo partly drawn)	<0.5
CC[C@@H](C)C(NC(=O)[C@H](Cc1ccccc1)NC(=O)C(C)NC(=O)OCc1ccccc1)C(=O)C1(C)CO1 (stereo partly drawn)	<1.0
CC(NC(=O)OCc1ccccc1)C(=O)N[C@@H](Cc1ccccc1)C(=O)N[C@@H](Cc1ccc(O)cc1)C(=O)C1(C)CO1 (stereo partly drawn)	>3.0

# input compound: CC1(C(=O)[C@H](Cc2ccccc2)NC(=O)[C@H](Cc2ccccc2)NC(=O)[C@H](Cc2c[nH]cn2)NC(=O)OCc2ccccc2)CO1 (stereo partly drawn) ; wanted: its Elisa ratio (beta5:LMP7)
<1.0

# input compound: CC(NC(=O)OCc1ccccc1)C(=O)N[C@@H](Cc1ccccc1)C(=O)N[C@H](C(=O)C1(C)CO1)c1ccccc1 (stereo partly drawn) ; wanted: its Elisa ratio (beta5:LMP7)
>1.0

# input compound: C[C@H](NC(=O)OCc1ccccc1)C(=O)N[C@@H](Cc1ccc(C(F)(F)F)cc1)C(=O)N[C@@H](Cc1ccccc1)C(=O)C1(C)CO1 (stereo partly drawn) ; wanted: its Elisa ratio (beta5:LMP7)
>2.0

# input compound: C[C@@H](NC(=O)OCc1ccccc1)C(=O)N[C@@H](Cc1c[nH]c2ccccc12)C(=O)N[C@@H](Cc1ccc(O)cc1)C(=O)C1(C)CO1 (stereo partly drawn) ; wanted: its Elisa ratio (beta5:LMP7)
>3.0

# input compound: CC(NC(=O)OCc1ccccc1)C(=O)N[C@@H](Cc1ccccc1)C(=O)N[C@@H](C)C(=O)C1(C)CO1 (stereo partly drawn) ; wanted: its Elisa ratio (beta5:LMP7)
<0.5

# input compound: COc1ccc(C[C@H](NC(=O)C(C)NC(=O)OCc2ccccc2)C(=O)N[C@@H](Cc2ccccc2)C(=O)C2(C)CO2)cc1 (stereo partly drawn) [drawing 66] ; wanted: its Elisa ratio (beta5:LMP7)
>5.0

# input compound: CC(NC(=O)OCc1ccccc1)C(=O)N[C@@H](Cc1ccccc1)C(=O)N[C@@H](CCc1ccccc1)C(=O)C1(C)CO1 (stereo partly drawn) ; wanted: its Elisa ratio (beta5:LMP7)
>3.0

# input compound: CC(C)C[C@@H](NC(=O)OCc1ccccc1)C(=O)N[C@@H](Cc1c[nH]c2ccccc12)C(=O)N[C@@H](Cc1ccccc1)C(=O)C1(C)CO1 (stereo partly drawn) ; wanted: its Elisa ratio (beta5:LMP7)
>5.0

# input compound: CC1(C(=O)[C@H](Cc2ccccc2)NC(=O)[C@H](Cc2c[nH]c3ccccc23)NC(=O)[C@H](CC(N)=O)NC(=O)OCc2ccccc2)CO1 (stereo partly drawn) ; wanted: its Elisa ratio (beta5:LMP7)
>1.0

# input compound: C[C@H](NC(=O)OCc1ccccc1)C(=O)N[C@@H](Cc1c[nH]c2ccccc12)C(=O)N[C@@H](Cc1ccccc1)C(=O)C1(C)CO1 (stereo partly drawn) ; wanted: its Elisa ratio (beta5:LMP7)
>5.0

# input compound: CC(NC(=O)OCc1ccccc1)C(=O)N[C@@H](Cc1c[nH]c2ccccc12)C(=O)N[C@@H](Cc1ccc(O)cc1)C(=O)C1(C)CO1 (stereo partly drawn) ; wanted: its Elisa ratio (beta5:LMP7)
>5.0

# input compound: CC(NC(=O)OCc1ccccc1)C(=O)N[C@@H](Cc1c[nH]c2ccccc12)C(=O)N[C@@H](Cc1ccccc1)C(=O)C1(C)CO1 (stereo partly drawn) ; wanted: its Elisa ratio (beta5:LMP7)
>5.0

# input compound: C[C@@H](NC(=O)OCc1ccccc1)C(=O)N[C@@H](Cc1c[nH]c2ccccc12)C(=O)N[C@@H](Cc1ccccc1)C(=O)C1(C)CO1 (stereo partly drawn) ; wanted: its Elisa ratio (beta5:LMP7)
>5.0

# input compound: CC[C@H](C)C(NC(=O)[C@H](Cc1c[nH]c2ccccc12)NC(=O)[C@H](C)NC(=O)OCc1ccccc1)C(=O)C1(C)CO1 (stereo partly drawn) ; wanted: its Elisa ratio (beta5:LMP7)
<1.0

# input compound: CC[C@H](C)C(NC(=O)OCc1ccccc1)C(=O)N[C@@H](Cc1c[nH]c2ccccc12)C(=O)N[C@@H](Cc1ccccc1)C(=O)C1(C)CO1 (stereo partly drawn) ; wanted: its Elisa ratio (beta5:LMP7)
>5.0

# input compound: CC1(C(=O)[C@H](Cc2ccccc2)NC(=O)[C@H](Cc2c[nH]c3ccccc23)NC(=O)[C@@H](NC(=O)OCc2ccccc2)c2ccccc2)CO1 (stereo partly drawn) ; wanted: its Elisa ratio (beta5:LMP7)
>1.0

# input compound: COc1ccc(C[C@H](NC(=O)C(C)NC(=O)OCc2ccccc2)C(=O)N[C@@H](Cc2ccc(O)cc2)C(=O)C2(C)CO2)cc1 (stereo partly drawn) [drawing 67] ; wanted: its Elisa ratio (beta5:LMP7)
>5.0

# input compound: CC(NC(=O)OCc1ccccc1)C(=O)N[C@@H](Cc1cccs1)C(=O)N[C@@H](Cc1ccccc1)C(=O)C1(C)CO1 (stereo partly drawn) ; wanted: its Elisa ratio (beta5:LMP7)
>3.0

# input compound: C[C@H](NC(=O)OCc1ccccc1)C(=O)N[C@@H](Cc1cn(C)c2ccccc12)C(=O)N[C@@H](Cc1ccccc1)C(=O)C1(C)CO1 (stereo partly drawn) ; wanted: its Elisa ratio (beta5:LMP7)
>3.0

# input compound: CC(C)C[C@H](NC(=O)OCc1ccccc1)C(=O)N[C@H](CC(C)C)C(=O)N[C@@H](Cc1ccccc1)C(=O)C1(C)CO1 (stereo partly drawn) ; wanted: its Elisa ratio (beta5:LMP7)
<0.5

# input compound: C[C@H](NC(=O)OCc1ccccc1)C(=O)N[C@@H](Cc1ccc(C#N)cc1)C(=O)N[C@@H](Cc1ccccc1)C(=O)C1(C)CO1 (stereo partly drawn) ; wanted: its Elisa ratio (beta5:LMP7)
>5.0
